Collected Pre-emergence action: Kochia (rating) values appear next to each entry.
- Test system: Kochia
- Test protocol: Example B3: pre-emergence action, 250 g/ha; note: key: 1=complete damage; 9=no effect; Ratings of 1 to 4 (in particular 1 to 3) mean good to very good herbicidal action
- Format: in vivo
- Conditions used: 250 g of AS/ha, sprayed immediately after sowing, 3 weeks, nine-level scale 1=complete damage, 9=no effect
Recorded endpoint: Pre-emergence action: Kochia (rating)

> print(dat)
                                   compound  assay.value
1  COc1ccc(C(=O)C2=C(O)C3CCC(C3)C2=O)c(C(F)(F)F)n1 (stereo not shown)            1
2  CSc1ccc(C(=O)C2=C(O)C3CCC(C3)C2=O)c(C(F)(F)F)n1 (stereo not shown)            5
3  O=C(C1=C(O)C2CCC(C2)C1=O)c1ccc(OCC(F)(F)F)nc1C(F)(F)F (stereo not shown)            4
4  CS(=O)(=O)c1ccc(C(=O)C2=C(O)C3CCC(C3)C2=O)c(C(F)(F)F)n1 (stereo not shown)            7
5  O=C(C1=C(O)C2CCC(C2)C1=O)c1ccc(Cl)nc1C(F)(F)F (stereo not shown)            1
6  CCSc1ccc(C(=O)C2=C(O)C3CCC(C3)C2=O)c(C(F)(F)F)n1 (stereo not shown)            9
7  CC[S+]([O-])c1ccc(C(=O)C2=C(O)C3CCC(C3)C2=O)c(C(F)(F)F)n1 (stereo not shown)            9
